# SYSTEM_NAME: T1, human OX40 on cells (human, UniProt P43489 29-277)
# T1 construct: whole, on cells; also called OX40 on HPB-ALL cells
# T1 sequence (looked up): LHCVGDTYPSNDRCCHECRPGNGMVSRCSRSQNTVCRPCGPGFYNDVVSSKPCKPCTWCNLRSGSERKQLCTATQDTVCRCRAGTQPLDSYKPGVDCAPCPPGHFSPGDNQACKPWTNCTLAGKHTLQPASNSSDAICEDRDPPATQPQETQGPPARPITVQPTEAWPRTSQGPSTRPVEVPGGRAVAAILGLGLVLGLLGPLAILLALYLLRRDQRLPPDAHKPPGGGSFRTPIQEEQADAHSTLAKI
# ASSAY_PROCEDURE: flow cytometry on HPB-ALL cells, 10 µg/ml antibody
Reported MFI values for a set of binders
No unit in the answer, please; the number alone is enough.

Some solved cases for reference:
• Humanized 7H11 VH3/VL1 IgG1 (antibody, V domains shown, human IgG1, kappa; also called Humanized VH3-VL1 IgG1) VH: QVQLVQSGAEVKKPGASVKVSCKASGYTFTRYYMHWVRQAPGQGLEWMGIIYPGDGSTSYAQKFQGRVTMTRDTSTSTVYMELSSLRSEDTAVYYCAREYGNYDYWGQGTLVTVSS VL: DIVMTQSPDSLAVSLGERATINCKSSQSLLNSGNQKNYLAWYQQKPGQPPKLLIYGASTRESGVPDRFSGSGSGTDFTLTISSLQAEDVAVYYCQNDHSYPYTFGQGTKLEIKR = 121
• Chimeric 7H11 IgG1 (antibody, V domains shown, Mouse variable domains on human IgG1 heavy constant domains and human kappa constant domain; also called 7H11 (chimeric); chimeric 7H11 antibody) VH: QVQLQQSGPELVKPGASVKMSCKASGYTFTRYYIHWMNQRPGQGLEWIGWIYPGDGSTKYNEKFKGKTTLTADTSSSTAYMLLSSLTSEDSAIYFCAREYGNYDYWGQGTTVTVSS VL: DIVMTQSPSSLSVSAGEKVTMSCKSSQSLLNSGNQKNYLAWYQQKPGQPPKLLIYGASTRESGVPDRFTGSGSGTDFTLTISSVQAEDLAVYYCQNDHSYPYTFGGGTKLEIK = 132
• Humanized 7H11 VH1/VL1 IgG1 (antibody, V domains shown, human IgG1, kappa; also called Humanized VH1-VL1 IgG1) VH: QVQLVQSGAEVKKPGASVKVSCKASGYTFTRYYMHWVRQAPGQGLEWMGWIYPGDGSTKYSQKFQGRVTITRDTSASTAYMELSSLRSEDTAVYYCAREYGNYDYWGQGTLVTVSS VL: DIVMTQSPDSLAVSLGERATINCKSSQSLLNSGNQKNYLAWYQQKPGQPPKLLIYGASTRESGVPDRFSGSGSGTDFTLTISSLQAEDVAVYYCQNDHSYPYTFGQGTKLEIKR = 120

Req: Quick one: MFI for Humanized 7H11 VH2/VL1 IgG1 (antibody, V domains shown, human IgG1, kappa; also called Humanized VH2-VL1 IgG1) VH: QVQLVQSGAEVKKPGASVKVSCKASGYTFTRYYMHWVRQAPGQGLEWMGWIYPGDGSTNYAQKFQGRVTMTRDTSISTAYMELSRLRSDDTAVYYCAREYGNYDYWGQGTLVTVSS VL: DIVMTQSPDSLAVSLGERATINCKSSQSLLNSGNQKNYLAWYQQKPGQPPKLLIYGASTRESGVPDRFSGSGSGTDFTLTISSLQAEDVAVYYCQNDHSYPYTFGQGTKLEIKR ?
Resp: 120
